- Tested on: Streptococcus pyogenes
- Test summary: Antibacterial activity against Streptococcus pyogenes by broth micro-dilution method
- Type: functional
Experimental readout: log10 of MIC (log10 of the value in µg/mL)
A difference of one corresponds to tenfold MIC; all values are log10 with MIC in µg/mL.

Smiles representation	Measured on	log10 of MIC
O=C(COc1cc2cc(c1)Oc1cc(c([N+](=O)[O-])cc1[N+](=O)[O-])Oc1cc(OCC(=O)Nc3cccc4cccnc34)cc(c1)Oc1cc(c([N+](=O)[O-])cc1[N+](=O)[O-])O2)Nc1cccc2cccnc12	Streptococcus pyogenes	1.70

INPUT: Answer with the recorded log10 of MIC of `O=C(COc1cc2cc(c1)Oc1cc(c([N+](=O)[O-])cc1[N+](=O)[O-])Oc1cc(OCC(=O)Nc3nc4ccc(Br)cc4s3)cc(c1)Oc1cc(c([N+](=O)[O-])cc1[N+](=O)[O-])O2)Nc1nc2ccc(Br)cc2s1` only.
OUTPUT: 1.40

INPUT: Answer with the recorded log10 of MIC of `O=C(COc1cc2cc(c1)Oc1cc(c([N+](=O)[O-])cc1[N+](=O)[O-])Oc1cc(OCC(=O)Nc3nc4ccc([N+](=O)[O-])cc4s3)cc(c1)Oc1cc(c([N+](=O)[O-])cc1[N+](=O)[O-])O2)Nc1nc2ccc([N+](=O)[O-])cc2s1` only.
OUTPUT: 0.24

====

# log10 of TGI per record follows
- Tested on: HeLa
- Test summary: Cytotoxicity against human HeLa cells
- Format: functional
A difference of one corresponds to tenfold TGI; all values are log10 with TGI in µM.

Smiles representation	log10 of TGI
COc1ccc2nc(NC(=O)COc3cc4cc(c3)Oc3cc(c([N+](=O)[O-])cc3[N+](=O)[O-])Oc3cc(OCC(=O)Nc5nc6ccc(OC)cc6s5)cc(c3)Oc3cc(c([N+](=O)[O-])cc3[N+](=O)[O-])O4)sc2c1	1.60
Cc1cccc2sc(NC(=O)COc3cc4cc(c3)Oc3cc(c([N+](=O)[O-])cc3[N+](=O)[O-])Oc3cc(OCC(=O)Nc5nc6c(C)cccc6s5)cc(c3)Oc3cc(c([N+](=O)[O-])cc3[N+](=O)[O-])O4)nc12	1.13
O=C(COc1cc2cc(c1)Oc1cc(c([N+](=O)[O-])cc1[N+](=O)[O-])Oc1cc(OCC(=O)Nc3nc4ccc([N+](=O)[O-])cc4s3)cc(c1)Oc1cc(c([N+](=O)[O-])cc1[N+](=O)[O-])O2)Nc1nc2ccc([N+](=O)[O-])cc2s1	1.97
O=[N+]([O-])c1cc([N+](=O)[O-])c2cc1Oc1cc(cc(OS(=O)(=O)c3cccc4ccccc34)c1)Oc1cc(c([N+](=O)[O-])cc1[N+](=O)[O-])Oc1cc(cc(OS(=O)(=O)c3cccc4ccccc34)c1)O2	1.79
O=C(COc1cc2cc(c1)Oc1cc(c([N+](=O)[O-])cc1[N+](=O)[O-])Oc1cc(OCC(=O)N(c3ccccc3)c3ccccc3)cc(c1)Oc1cc(c([N+](=O)[O-])cc1[N+](=O)[O-])O2)N(c1ccccc1)c1ccccc1	1.91

INPUT: Answer with the recorded log10 of TGI of `O=C(COc1cc2cc(c1)Oc1cc(c([N+](=O)[O-])cc1[N+](=O)[O-])Oc1cc(OCC(=O)Nc3nc4ccccc4s3)cc(c1)Oc1cc(c([N+](=O)[O-])cc1[N+](=O)[O-])O2)Nc1nc2ccccc2s1` only.
OUTPUT: 1.29

INPUT: Answer with the recorded log10 of TGI of `O=C(COc1cc2cc(c1)Oc1cc(c([N+](=O)[O-])cc1[N+](=O)[O-])Oc1cc(OCC(=O)Nc3nc4ccc(Br)cc4s3)cc(c1)Oc1cc(c([N+](=O)[O-])cc1[N+](=O)[O-])O2)Nc1nc2ccc(Br)cc2s1` only.
OUTPUT: 0.66
